Details: pH 2.7
Marks after values point to notes of the source that are not given here.
Quantity name: Log P

Reference set, count: 6
Compound | Log P
CCOC(=O)C(C#N)=C(Nc1ccccc1SC(C)C)c1cc(C)oc1C [Compound 421] | 4.57^[a]
CCOC(=O)C(C#N)=C(Nc1ccc(Cl)cc1)c1sccc1C(F)(F)F [Compound 510] | 4.14^[a]
CCOC(=O)C(C#N)=C(NC1(C#N)CC1)c1cn(C)nc1C(F)F [Compound 1132] | 2.1^[a]
CCOC(=O)C(C#N)=C(NC(C)c1nccs1)c1ccncc1Br (mixture of isomers) [Compound 297] | 2.4^[a]
C#CC(C)NC(=C(C#N)C(=O)OC)c1sc(C)nc1C(F)(F)F (centres unmarked) [Compound 1048] | 2.73^[a]
CCOC(=O)C(C#N)=C(NC1CCC1)c1ncc(Cl)cc1Cl [Compound 795] | 3.67^[a]

What value of Log P has been recorded for this entry: CCOC(=O)C(C#N)=C(Nc1ccc(C(C)C)cc1)c1sccc1C(F)(F)F [Compound 481]
4.75^[a]

What value of Log P has been recorded for this entry: CC(C)C(C)NC(=C(C#N)C(=O)NCCC#N)c1cn(C)nc1C(F)F (centres unmarked) [Compound 1299]
2.44^[a]
